Sourced from the supplement of paper PMC6755084

B1: minF1; the commonest letter at each place (parent)
chain: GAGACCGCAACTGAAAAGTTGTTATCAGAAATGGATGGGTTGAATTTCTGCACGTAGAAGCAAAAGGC

- Variants of: B1
- protocol text: fraction ligated after 30 min (ligated reads / total reads); higher = more ligase activity
- stated conditions: with F1*subA RNA substrate (template-directed ligation), 42 °C
Assign class by fraction ligated: not lower than 0.009 means satisfied; lower than 0.009 means not satisfied.

q: Say whether GAGACCGCAACTGAAAAGTTGTTCTCAGCAATGGATGGGTTGAATTTCTGCACGTAGAAGCAAAAGGC [A24C A29C] shows fraction ligated of 0.009 or more.
a: satisfied

q: Next entry: GAGACCGCAACTGAAAAGTTGTTATATGAAATGGATGGGTTGAATTTCTGCACGTAGAAGCAAAAGGC [C26A A27T]
a: satisfied

q: Same question, GAGACCGCAACTGAAAAGTTGTTATCCGCAATGGATGGGTTGAATTTCTGCACGTAGAAGCAAAAGGC [A27C A29C] this time
a: satisfied

q: For GAGACCGCAACTGAAAAGTTGTTATGAGAAAGGGATGGGTTGAATTTCTGCACGTAGAAGCAAAAGGC [C26G T32G] then?
a: not satisfied

q: Please do the same for GAGACCGCAACTGAAAAGTTGTTATCAGAACTGCATGGGTTGAATTTCTGCACGTAGAAGCAAAAGGC [A31C G34C] as well.
a: not satisfied

q: What about this variant? GAGACCGCAACTGAAAAGTTGTTATCAGAAATGGATGGGTTTGCTTTCTGCACGTAGAAGCAAAAGGC [G42T A43G A44C]
a: not satisfied

q: Follow-up entry: GAGACCGCAACTGAAAAGTTGTTGTCAGAAATGGATAGGTTGAATTTCTGCACGTAGAAGCAAAAGGC [A24G G37A]
a: not satisfied

q: Request: GAGACCGCAACTGAAAAGTTGTAATCAGACATGGATGGGTTGAATTTCTGCACGTAGAAGCAAAAGGC [T23A A30C]
a: satisfied

q: Consider next the variant GAGACCGCAACTGAAAAGTTGTTACCAGAAATTGATGGGTTGAATTTCTGCACGTAGAAGCAAAAGGC [T25C G33T] in the same way.
a: satisfied

q: Moving on to GAGACCGCAACTGAAAAGTTGTTGTCATAAATGGATGGGTTGAATTTCTGCACGTAGAAGCAAAAGGC [A24G G28T]
a: satisfied

q: Request: GAGACCGCAACTGAAAAGTTGTTATCAGAACTGGAAGGGTTGAATTTCTGCACGTAGAAGCAAAAGGC [A31C T36A]
a: satisfied

q: Now the variant GAGACCGCAACTGAAAAGTTGTGCTCAGAAATGGATGGGTTGAATTTCTGCACGTAGAAGCAAAAGGC [T23G A24C]
a: satisfied

q: Field entry: GAGACCGCAACTGAAAAGTTGTTAACAGAAATGGATGGGTTGGATTTCTGCACGTAGAAGCAAAAGGC [T25A A43G]
a: not satisfied

q: Thanks! And GAGACCGCAACTGAAAAGTTGTTATCAGAAATAGATAGGTTGAATTTCTGCACGTAGAAGCAAAAGGC [G33A G37A] ?
a: not satisfied

q: Same read-out for GAGACCGCAACTGAAAAGTTGTTATGAGAAATGGATGGGTTGTATTTCTGCACGTAGAAGCAAAAGGC [C26G A43T] ?
a: not satisfied

q: Another variant to check: GAGACCGCAACTGAAAAGTTGTTATCAGAAGCGGATGGGTTGAATTTCTGCACGTAGAAGCAAAAGGC [A31G T32C]
a: not satisfied

q: Next up: GAGACCGCAACTGAAAAGTTGTTATTAGAAATCGATGGGTTGAATTTCTGCACGTAGAAGCAAAAGGC [C26T G33C]
a: satisfied

q: Another variant to look at: GAGACCGCAACTGAAAAGTTGTTATCAGAAACGGATGGGTTGAGTTTCTGCACGTAGAAGCAAAAGGC [T32C A44G]
a: satisfied
